Biological target: T1, recombinant human activated Factor VII (FVIIa) (human, UniProt P08709 61-212; P08709 213-466, Gla domain: ten glutamate residues may be gamma-carboxylated)
T1 construct: two-chain form after cleavage between Arg152 and Ile153; light chain (Gla, EGF domains) and heavy chain (protease domain) tethered by a disulfide bond; also called rFVIIa; human FVIIa
T1 sequence 1: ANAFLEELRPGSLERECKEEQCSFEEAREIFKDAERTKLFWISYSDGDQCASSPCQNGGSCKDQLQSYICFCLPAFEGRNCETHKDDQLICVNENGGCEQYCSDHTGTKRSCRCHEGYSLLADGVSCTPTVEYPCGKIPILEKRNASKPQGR
T1 sequence 2: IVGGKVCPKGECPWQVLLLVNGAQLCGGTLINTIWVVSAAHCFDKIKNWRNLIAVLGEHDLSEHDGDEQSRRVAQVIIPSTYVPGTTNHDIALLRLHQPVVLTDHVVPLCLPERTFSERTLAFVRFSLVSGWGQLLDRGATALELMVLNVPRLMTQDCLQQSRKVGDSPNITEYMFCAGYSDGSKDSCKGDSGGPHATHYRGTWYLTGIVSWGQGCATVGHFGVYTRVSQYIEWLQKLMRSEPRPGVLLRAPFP
Test: Bio-Layer Interferometry (Fortebio), antibody on anti-human tips, FVIIa 25-200 nM
measuredProperty: Kd (nM)
Respond with the bare value in nM.

### Prompt Could you tell me which Kd is on file for mAb0118 (antibody, human IgG4 S228P, kappa, V domains shown, humanized 11F2 variant, first round) VH: DVQLQESGPGLVEPSQTLSLTCTVSGYSITSDSAWSWIRQFPGKKLEWIGYIQYSGSTNYNPSLKSRVTISRDTSKNQFSLKLSSVTAEDTAVYYCARSVNYYGNSFAVGYWGQGTSVTVSS VL: EIVLTQSPATLSLSPGERATLSCRASQGISDYLHWYQQKPGEAPRLLIKYTSQPATGIPARFSGSGSGTDFTLTISSLEPEDVGVYYCQNGHSFPLTFGAGTKLELKR ?
### Response 1.7

# ---- query binder ----
### Prompt Could you tell me which Kd is on file for mAb0114 (antibody, human IgG4 S228P, kappa, V domains shown, humanized 11F2 variant, first round) VH: DVQLQESGPGLVEPSQTLSLTCTVSGYSITSDSAWSWIRQFPGKKLEWMGYIQYSGSTNYNPSLKSRVTISRDTSKNQFSLKLSSVTAADTAVYYCARSVNYYGNSFAVGYWGQGTSVTVSS VL: EIVLTQSPATLSLSPGERATLSCRASQGISDYLHWYQQKPGEAPRLLIKYTSQPATGIPARFSGSGSGTDFTLTISSLEPEDVGVYYCQNGHSFPLTFGAGTKLELKR ?
### Response 1.5
